- Tested on: TO-3-N3-2 (biotin conjugate)
- PROCEDURE_DETAILS: pull-down binding Z-score (relative to library population); higher = stronger binding
- CONDITION: RNA library: Library-2
pull-down binding Z-score vs -0.4: at or above is 1.0, below is 0.0.

Previously resolved entries follow.
chain="CCCACUUCCUGGA [hsa-mir-4260]" group_label=0.0
chain="UAGAAUAGACGGUGACAUGGUACCACAUAUAUCACGUCAACGUCUUACUA [SHAPE_invivo_SARS-CoV-2_Motif_261]" group_label=1.0

Exercise: Record CAUAGAUUAUGACUGUG [SHAPE_invivo_SARS-CoV-2_Motif_206] ; criterion: pull-down binding Z-score no lower than -0.4. Met?
Solution: 1.0
